# TEST CONDITIONS: in ethanol, 298.15 K
VALUE KIND: solubility (mole fraction)

>>> measured_number("NC(=O)c1ncn([C@@H]2O[C@H](CO)[C@@H](O)[C@H]2O)n1")
0.000158

====

# TEST CONDITIONS: in n-propanol, 308.15 K
VALUE KIND: solubility (mole fraction)

>>> measured_number("NC(=O)c1ncn([C@@H]2O[C@H](CO)[C@@H](O)[C@H]2O)n1")
0.000161

====

# TEST CONDITIONS: in water, 293.15 K
VALUE KIND: solubility (mole fraction)

>>> measured_number("NC(=O)c1ncn([C@@H]2O[C@H](CO)[C@@H](O)[C@H]2O)n1")
0.0123
